Reported solubility kinetic values follow for various compounds
Procedure details: physchem
Condition description: pH 7.4, Kinetic Solubility, R=2, PBS pH7.4 in 2% DMSO by LC-MS, replicate 2
Quantity name: solubility kinetic (µM)

>>> test_value("c1ccc(-c2nnc(Cc3c[nH]c4ccccc34)nc2-c2ccccc2)cc1")
1.3
>>> test_value("c1ccc(-c2nc[nH]c2-c2ccccc2)cc1 [DPI, 4,5-Diphenylimidazole, reference compound]")
28
>>> test_value("CC(=O)N1CCN(c2ccc(OCC3COC(Cn4ccnc4)(c4ccc(Cl)cc4Cl)O3)cc2)CC1 (stereo not drawn) [Ketoconazole, reference compound]")
105

---

GTPγS (pIC50) values by entry
Tested system: human GPR84 (Homo sapiens, UniProt P04899+Q9NQS5)
Construct: expressed in transfected cells; host or cells: Flp-In T-REx 293 cells, doxycycline-induced; membrane preparations
Sequence (Q9NQS5+P04899 fused): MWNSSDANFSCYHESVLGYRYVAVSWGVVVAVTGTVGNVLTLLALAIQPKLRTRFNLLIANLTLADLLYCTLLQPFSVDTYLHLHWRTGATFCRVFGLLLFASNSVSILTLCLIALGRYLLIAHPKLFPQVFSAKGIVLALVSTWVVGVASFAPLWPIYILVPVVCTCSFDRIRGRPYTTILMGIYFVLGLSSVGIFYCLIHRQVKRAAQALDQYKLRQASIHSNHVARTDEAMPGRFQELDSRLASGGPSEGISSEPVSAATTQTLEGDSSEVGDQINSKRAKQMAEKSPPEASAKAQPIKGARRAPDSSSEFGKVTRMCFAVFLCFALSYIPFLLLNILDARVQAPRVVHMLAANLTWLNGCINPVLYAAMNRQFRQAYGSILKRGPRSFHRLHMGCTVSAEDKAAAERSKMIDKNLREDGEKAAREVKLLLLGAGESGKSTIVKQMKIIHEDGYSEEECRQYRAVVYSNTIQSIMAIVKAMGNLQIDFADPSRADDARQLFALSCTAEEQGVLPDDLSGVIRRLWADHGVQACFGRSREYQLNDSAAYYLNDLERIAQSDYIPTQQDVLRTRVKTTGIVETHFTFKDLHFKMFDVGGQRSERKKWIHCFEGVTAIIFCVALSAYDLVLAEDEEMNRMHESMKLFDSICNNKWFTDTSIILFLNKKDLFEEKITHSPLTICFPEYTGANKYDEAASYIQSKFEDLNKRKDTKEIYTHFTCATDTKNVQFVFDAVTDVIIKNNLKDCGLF
Procedure details: biochemical
Format: biochemical
Condition description: [35S]GTPγS assay; negative log of the IC50 in molar; mean ± SEM
Quantity name: GTPγS (pIC50)

>>> test_value("CN1CCN(C(=O)c2ccc(-c3nnc(Cc4c[nH]c5ccccc45)nc3-c3ccccc3)cc2)CC1=O [Compound 80]")
"6.69 ± 0.04"
>>> test_value("OCc1ccc(-c2nnc(Cc3c[nH]c4ccccc34)nc2-c2ccccc2)cc1 [Compound 40]")
"7.76 ± 0.06"
>>> test_value("CN(C)CCNC(=O)c1ccc(-c2nnc(Cc3c[nH]c4ccccc34)nc2-c2ccccc2)cc1 [Compound 75]")
"5.54 ± 0.10"
>>> test_value("FC(F)(F)Oc1ccccc1-c1cnnc(Cc2c[nH]c3ccccc23)n1 [Compound 26]")
"<4.70"
>>> test_value("CNC(=O)c1ccc(-c2nc(Cc3c[nH]c4cnccc34)nnc2-c2ccccc2)cc1 [Compound 67]")
"6.48 ± 0.04"
>>> test_value("CN(C)Cc1ccc(-c2nnc(Cc3c[nH]c4ccccc34)nc2-c2ccccc2)cc1 [Compound 44]")
"6.68 ± 0.05"
>>> test_value("Cc1cc(Cc2nnc(-c3ccccc3)c(-c3ccccc3)n2)n[nH]1 [Compound 23]")
"4.97 ± 0.23"
>>> test_value("COc1ccc(-c2nnc(Cc3c[nH]c4ccccc34)nc2-c2ccc(OC)cc2)cc1 [Compound 1]")
"7.93 ± 0.21"
>>> test_value("Cc1cc(Nc2nnc(-c3ccccc3)c(-c3ccccc3)n2)n[nH]1 [Compound 25]")
"<4.70"
>>> test_value("CCCCCc1nnc(-c2ccccc2)c(-c2ccccc2)n1 [Compound 21, 3-Pentyl-5,6-diphenyl-1,2,4-triazine]")
"5.12 ± 0.05"
>>> test_value("COc1ccc(-c2nnc(Cc3cn(C)c4ccccc34)nc2-c2ccc(OC)cc2)cc1 [Compound 13]")
"<4.70"
>>> test_value("O=C(O)c1ccc(-c2nnc(Cc3c[nH]c4ccccc34)nc2-c2ccccc2)cc1 [Compound 52]")
"7.06 ± 0.22"
>>> test_value("O=C(c1ccc(-c2nnc(Cc3c[nH]c4ccccc34)nc2-c2ccccc2)cc1)N1CCOCC1 [Compound 74]")
"7.19 ± 0.07"
>>> test_value("O=C(NCCO)c1ccc(-c2nc(Cc3c[nH]c4cnccc34)nnc2-c2ccccc2)cc1 [Compound 69]")
"6.84 ±0.05"
>>> test_value("CNC(=O)c1ccc(-c2nnc(Cc3c[nH]c4ccccc34)nc2-c2ccccc2)cc1 [Compound 73]")
"7.18 ± 0.09"
>>> test_value("CC(=O)NCc1ccc(-c2nc(Cc3c[nH]c4ccccc34)nnc2-c2ccccc2)cc1 [Compound 45]")
"6.93 ± 0.06"
>>> test_value("Fc1ccc(-c2nnc(Cc3c[nH]c4ccccc34)nc2-c2ccc(F)cc2)cc1 [Compound 5]")
"7.81 ± 0.04"
>>> test_value("Fc1ccc2c(Cc3nnc(-c4ccccc4)c(-c4ccccc4)n3)c[nH]c2c1 [Compound 15]")
"6.65 ± 0.03"
>>> test_value("CS(=O)(=O)NCc1ccc(-c2nnc(Cc3c[nH]c4ccccc34)nc2-c2ccccc2)cc1 [Compound 48]")
"7.61 ± 0.06"

Where do the numbers come from? From paper PMC9421653.
